All figures here come from patent US10787444B2.

# system_tested: c-Myc/Max/Ebox DNA (Homo sapiens, UniProt P01106)
# Construct: his6 (cleaved yes)
# Sequence (P01106 whole entry): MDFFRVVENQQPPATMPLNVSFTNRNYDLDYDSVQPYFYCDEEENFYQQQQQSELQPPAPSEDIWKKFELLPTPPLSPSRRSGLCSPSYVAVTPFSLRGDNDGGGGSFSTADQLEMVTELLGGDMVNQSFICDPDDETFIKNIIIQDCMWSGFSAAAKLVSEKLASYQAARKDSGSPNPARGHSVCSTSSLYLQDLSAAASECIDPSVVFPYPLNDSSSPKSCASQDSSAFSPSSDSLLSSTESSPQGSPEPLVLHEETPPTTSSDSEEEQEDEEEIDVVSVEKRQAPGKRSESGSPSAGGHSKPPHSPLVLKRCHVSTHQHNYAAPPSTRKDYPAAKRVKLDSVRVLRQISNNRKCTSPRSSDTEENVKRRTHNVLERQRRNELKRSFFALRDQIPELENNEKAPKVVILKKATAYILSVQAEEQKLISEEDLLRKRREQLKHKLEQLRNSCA
# test_protocol: c-Myc/Max/Ebox DNA AlphaScreen Assay
# Type: binding
# assay_conditions: Table 2, compounds of FIG. 1; calculated IC50 class
# Protocol: Compounds of the invention were assayed for c-Myc/Max/EBox activity as described in the following protocol. Human his6-c-Myc and his6-Max were used with biotinylated DNA containing a single Ebox sequence (biotin[…]) purchased from MWG Operon. Free c-Myc was generated from his6-c-Myc through thrombin cleavage of the his6 tag. […] AlphaScreen measurements were performed on an Envision plate reader (PerkinElmer) utilizing the manufacturer's protocol. […]
value_kind: IC50

{"columns": ["molecule", "observed_result"],
 "data": [
  ["COCCNCCC(=O)Nc1sc2c(c1-c1nc3c(CO)cccc3s1)CCNC2 [compound 598]", "< 300 nM"],
  ["COCCNCCC(=O)Nc1sc2c(c1-c1nc3cc(C(F)(F)F)ccc3s1)CCN(C(C)C)C2 [Compound 575]", "< 300 nM"],
  ["CNCCC(=O)Nc1sc2c(c1-c1nc3ccccc3s1)CCNC2 [Compound 128]", "< 300 nM"],
  ["CC[C@H](C)NCCC(=O)Nc1sc2c(c1-c1nc3ccccc3s1)CC(C)NC2C (single isomer, unassigned) [Compound 624]", "< 300 nM"],
  ["CCOC(=O)CNCCC(=O)Nc1sc2c(c1-c1nc3ccccc3s1)CCN(C(C)C)C2 [Compound 138]", "300 to 1000 nM"],
  ["COCCNCCC(=O)Nc1sc2c(c1-c1nc3ccc(-c4cccnc4)cc3s1)CC(C)NC2C (single isomer, unassigned) [Compound 527]", "300 to 1000 nM"],
  ["COCCNCCC(=O)Nc1sc2c(c1-c1nc3cc(-c4ccncc4)ccc3s1)CC(C)NC2C (single isomer, unassigned) [Compound 522]", "< 300 nM"],
  ["COCCNCCC(=O)Nc1sc2c(c1-c1nc3cc(-c4cnn(C)c4)ccc3s1)CC(C)NC2C (single isomer, unassigned) [Compound 565]", "< 300 nM"],
  ["CC(C)NCCC(=O)Nc1sc2c(c1-c1nc3cc(C(=O)Nc4ccccc4)ccc3s1)CCNC2 [Compound 505]", "1000 to 10000 nM"],
  ["COCCNCCC(=O)Nc1sc2c(c1-c1nc3cc(-c4cnn(C)c4)ccc3s1)CC(C)NC2C (single isomer, unassigned) [Compound 566]", "1000 to 10000 nM"],
  ["O=C(CCN[C@@H]1C[C@H]2CNC[C@H]2C1)Nc1sc2c(c1-c1nc3cc(-c4ccncc4)ccc3s1)CCNC2 [Compound 606]", "< 300 nM"],
  ["CC(C)N1CCc2c(sc(NC(=O)CCNCCc3ccccc3Cl)c2-c2nc3ccccc3s2)C1 [Compound 109]", "> 10000 nM"],
  ["COCCNCCC(=O)Nc1sc2c(c1-c1nc3cc(C4=CCNCC4)ccc3s1)CCNC2 [compound 497]", "< 300 nM"],
  ["COCCNCCC(=O)Nc1sc2c(c1-c1nc3cc(-c4ccnc(N)c4)ccc3s1)CCNC2 [compound 433]", "< 300 nM"],
  ["CCC(C)NCCC(=O)Nc1sc2c(c1-c1nc3cc4c(cc3s1)OCO4)CCNC2 (centres unmarked) [Compound 555]", "< 300 nM"],
  ["COCCNCCC(=O)Nc1sc2c(c1-c1nc3ccccc3s1)CC(C)NC2C (single isomer, unassigned) [Compound 509]", "1000 to 10000 nM"],
  ["COCCNCCC(=O)Nc1sc2c(c1-c1nc3cc(-c4ccncc4)ccc3s1)CC(C)NC2 (single isomer, unassigned) [Compound 549]", "< 300 nM"],
  ["CC(C)(C)NCCC(=O)Nc1sc2c(c1-c1nc3ccccc3s1)CCNC2 [Compound 131]", "< 300 nM"],
  ["CCC1Cc2c(sc(NC(=O)CCNCCOC)c2-c2nc3ccccc3s2)C(CC)N1 (single isomer, unassigned) [Compound 537]", "> 10000 nM"],
  ["COCCNCCC(=O)Nc1sc2c(c1-c1nc3cc(F)ccc3s1)CC(C)NC2C (single isomer, unassigned) [Compound 545]", "< 300 nM"]
]}

---

# system_tested: c-Myc/Max/Ebox DNA (Homo sapiens)
# Construct: his6 (cleaved yes)
# test_protocol: c-Myc/Max/Ebox DNA AlphaScreen Assay
# Assay type: binding
# assay_conditions: Table 2, compounds of FIG. 1; calculated IC50 class
This section presents compounds with their documented IC50 values.

{"columns": ["compound", "IC50"],
 "data": [
  ["CC(C)N1CCc2c(sc(NC(=O)CCNCC(=O)O)c2-c2nc3ccccc3s2)C1 [Compound 168]", "0.3 to 1 µM"],
  ["CCC(C)NCCC(=O)Nc1sc2c(c1-c1nc3cc(-c4cn[nH]c4)ccc3s1)CCNC2 (stereo not shown) [compound 151]", "< 0.3 µM"],
  ["COCCNCCC(=O)Nc1sc2c(c1-c1nc3cc(-c4cccnc4)ccc3s1)CC(C)NC2C (single isomer, unassigned) [Compound 525]", "< 0.3 µM"],
  ["CC(C)NCCC(=O)Nc1sc2c(c1-c1nc3c(S(C)(=O)=O)cccc3s1)CCNC2 [compound 553]", "< 0.3 µM"]
]}

---

# system_tested: c-Myc/Max/Ebox DNA (Homo sapiens, UniProt P01106)
# Construct: his6 (cleaved yes)
# test_protocol: c-Myc/Max/Ebox DNA AlphaScreen Assay
# Type: binding
# assay_conditions: Table 2, compounds of FIG. 1; calculated IC50 class
pIC50: −log10 of the molar value.
This section presents compounds with their documented pIC50 values.
value_kind: pIC50

{"columns": ["compound", "value_kind", "observed_result"],
 "data": [
  ["COCCNCCC(=O)Nc1sc2c(c1-c1nc3cc(-c4ccnc(NC(C)=O)c4)ccc3s1)CCNC2 [compound 342]", "pIC50", "> 6.52"],
  ["O=C(CCNCc1cn[nH]c1)Nc1sc2c(c1-c1nc3ccccc3s1)CCNC2 [Compound 167]", "pIC50", "> 6.52"],
  ["COCCNCCC(=O)Nc1sc2c(c1-c1nc3ccccc3s1)CC(C)NC2C (stereo not drawn) [Compound 315]", "pIC50", "6.00 to 6.52"],
  ["COCCNCCC(=O)Nc1sc2c(c1-c1nc3cc(C(F)(F)F)ccc3s1)CC(C)NC2 (single isomer, unassigned) [Compound 550]", "pIC50", "> 6.52"],
  ["COCCNCCC(=O)Nc1sc2c(c1-c1nc3cc(-c4ccc(C(=O)N5CCOCC5)cc4)ccc3s1)CCNC2 [compound 334]", "pIC50", "> 6.52"],
  ["COCCNCCC(=O)Nc1sc2c(c1-c1nc3cc4c(cc3s1)OCO4)CCNC2 [Compound 556]", "pIC50", "> 6.52"]
]}

---

# system_tested: c-Myc/Max/Ebox DNA (Homo sapiens)
# Construct: his6 (cleaved yes)
# test_protocol: c-Myc/Max/Ebox DNA AlphaScreen Assay
# Type: binding
# assay_conditions: Table 2, compounds of FIG. 1; calculated IC50 class
value_kind: IC50

{"columns": ["molecule", "observed_result"],
 "data": [
  ["CCN(CC)c1ccc(-c2ccc3sc(-c4c(NC(=O)CCNCCOC)sc5c4CCNC5)nc3c2)cc1", "< 300 nM"],
  ["COCCNCCC(=O)Nc1sc2c(c1-c1nc3ccc(-c4ccc(C#N)nc4)cc3s1)CCNC2", "< 300 nM"],
  ["CCC(C)NCCC(=O)Nc1sc2c(c1-c1nc3cc(-c4cccnc4)ccc3s1)CCNC2 (stereo not shown)", "< 300 nM"],
  ["COCCNCCC(=O)Nc1sc2c(c1-c1nc3cc(-c4ccn[nH]4)ccc3s1)CCNC2", "< 300 nM"],
  ["CCC(C)N(C)CCC(=O)Nc1sc2c(c1-c1nc3ccccc3s1)CCN(C(C)C)C2 (stereo not shown) [Compound 577]", "> 10000 nM"],
  ["CC(C)NCCC(=O)Nc1sc2c(c1-c1nc3ccccc3s1)CC(C)NC2C (single isomer, unassigned) [Compound 197]", "1000 to 10000 nM"],
  ["COCCNCCC(=O)Nc1sc2c(c1-c1nc3cc(-c4cccc(C(=O)N(C)C)c4)ccc3s1)CCNC2", "< 300 nM"],
  ["CCC(C)NCCC(=O)Nc1sc2c(c1-c1nc3cc(Br)ccc3s1)CCNC2 (stereo not shown)", "< 300 nM"],
  ["COCCNCCC(=O)Nc1sc2c(c1-c1nc3cc(F)ccc3s1)CCN[C@@H]2C", "< 300 nM"],
  ["CC(C)N1CCc2c(sc(NC(=O)CCNCCCOCCOCCOCCCN)c2-c2nc3ccccc3s2)C1", "< 300 nM"],
  ["COCCNCCC(=O)Nc1sc2c(c1-c1nc3cc(-n4cnc(C)c4)ccc3s1)CCNC2", "< 300 nM"],
  ["CC[C@H](C)NCCC(=O)Nc1sc2c(c1-c1nc3cc(C(F)(F)F)ccc3s1)CC(C)NC2C (single isomer, unassigned) [Compound 586]", "> 10000 nM"],
  ["C=Cc1cccc2sc(-c3c(NC(=O)CCNCCOC)sc4c3CCNC4)nc12 [Compound 583, bis(2,2,2-trifluoroacetate)]", "< 300 nM"],
  ["CCC(C)NCCC(=O)Nc1sc2c(c1-c1nc3cc(F)ccc3s1)CCN(C(C)C)C2 (stereo not shown)", "< 300 nM"],
  ["COCCNCCC(=O)Nc1sc2c(c1-c1nc3ccc(-c4ccncc4)cc3s1)CC(C)NC2C (single isomer, unassigned) [Compound 517]", "< 300 nM"],
  ["COCCNCCC(=O)Nc1sc2c(c1-c1nc3c(Br)cccc3s1)CCNC2", "< 300 nM"]
]}
